Give measured logP for each item. Keep answers brief.
Please reply with the number alone, leaving off any unit.

[ask] Report logP for CCOC(C)=O
[reply] 0.53

[ask] Report logP for CCCCOC(C)=O
[reply] 1.69

---

- Test protocol: method code SF-HPLC, from DOI: 10.1002/jps.10072, PMID: 11920751
- Assay setup: pH 7.4
Give measured logD for each item. Keep answers brief.
Please reply with the number alone, leaving off any unit.

[ask] Report logD for CC(=O)OCC(CO)OCn1cnc2c(=O)[nH]c(N)nc21 (stereo not drawn)
[reply] -1.08

[ask] Report logD for CCC(=O)OCC(CO)OCn1cnc2c(=O)[nH]c(N)nc21 (stereo not drawn)
[reply] -0.92

[ask] Report logD for CCCCC(=O)OCC(CO)OCn1cnc2c(=O)[nH]c(N)nc21 (stereo not drawn)
[reply] -0.07
